Target or system Stromelysin-1 (Homo sapiens): recorded IC50 listed per item.
Kindly provide the numeric value in nM only, without the unit symbol.

CC(C)C[C@H](CC(=O)NO)C(=O)N1NCCC[C@H]1C(=O)O: 600

**Q:** Param readout = IC50; param system = Stromelysin-1 (Homo sapiens); param query = CC(C)C[C@H](CC(=O)NO)C(=O)N1CCCCN1 ; response: value
Sequence (P08254 whole entry): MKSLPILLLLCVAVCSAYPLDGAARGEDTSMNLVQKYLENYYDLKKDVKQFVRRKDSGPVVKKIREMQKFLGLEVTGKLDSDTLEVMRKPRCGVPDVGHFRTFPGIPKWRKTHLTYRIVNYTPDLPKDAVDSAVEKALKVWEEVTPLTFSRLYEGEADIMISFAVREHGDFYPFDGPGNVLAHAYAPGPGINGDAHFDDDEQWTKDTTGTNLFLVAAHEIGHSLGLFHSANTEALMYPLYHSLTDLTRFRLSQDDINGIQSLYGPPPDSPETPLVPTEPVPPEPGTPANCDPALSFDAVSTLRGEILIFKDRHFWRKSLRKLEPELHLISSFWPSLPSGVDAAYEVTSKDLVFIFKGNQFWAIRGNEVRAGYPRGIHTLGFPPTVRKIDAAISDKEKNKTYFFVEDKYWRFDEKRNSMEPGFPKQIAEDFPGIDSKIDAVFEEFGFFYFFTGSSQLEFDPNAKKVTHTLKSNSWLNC
**A:** 9670

**Q:** Param readout = IC50; param system = Stromelysin-1 (Homo sapiens); param query = CC(C)C[C@H](CC(=O)NO)C(=O)N1NCCC[C@H]1CO ; response: value
**A:** 2700

**Q:** Param readout = IC50; param system = Stromelysin-1 (Homo sapiens); param query = CCCCC[C@H](CC(=O)NO)C(=O)N1NCCC[C@H]1C(=O)N[C@@H](C(=O)CC)C(C)CC (some centres undefined) ; response: value
**A:** 300

Values from ChEMBL document CHEMBL1152052
